EXPERIMENTAL_CONDITIONS: 308.15 K; 101.33 kPa; Liquid; Vibrating tube method
± gives the expanded uncertainty stated by the source.
MEASURE_NAME: mass density
The reply must contain the numeric value and, after it, the unit.

{"COMPOUND": "CCn1cc[n+](C)c1.NCC(=O)[O-] [1-ethyl-3-methylimidazolium ammonioacetate]", "MEASURE_NAME": "mass density", "REPORTED_RESULT": "1148.5 ± 2.5 kg/m3"}

Quick one: give me mass density for each item below, same order please.
1. CCn1cc[n+](C)c1.C[C@H](N)C(=O)[O-] [1-ethyl-3-methylimidazolium L-alaninate]
2. CC[n+]1ccn(C)c1.N[C@@H](CO)C(=O)[O-] [3-ethyl-1-methyl-1H-imidazolium L-serinate]

Key:
["1129.8 ± 2.4 kg/m3", "1188.6 ± 2.7 kg/m3"]

Exercise: Give the reported value of mass density for this record: CCn1cc[n+](C)c1.O=C([O-])[C@@H]1CCCN1 [1-ethyl-3-methyl-1H-imidazolium L-prolinate]
Key: 1148.9 ± 2.5 kg/m3

###

Consider the following molecules; for each one, report its viscosity.
EXPERIMENTAL_CONDITIONS: 328.15 K; 101.33 kPa; Liquid; Concentric cylinders viscometry
Numbers only, in mPa·s.

These solved cases illustrate the format of a correct answer.
{"MOLECULE": "CCn1cc[n+](C)c1.NCC(=O)[O-] [1-ethyl-3-methylimidazolium ammonioacetate]", "viscosity [mPa·s]": 17.33}
{"MOLECULE": "CCn1cc[n+](C)c1.C[C@H](N)C(=O)[O-] [1-ethyl-3-methylimidazolium L-alaninate]", "viscosity [mPa·s]": 36.56}
{"MOLECULE": "CCn1cc[n+](C)c1.O=C([O-])[C@@H]1CCCN1 [1-ethyl-3-methyl-1H-imidazolium L-prolinate]", "viscosity [mPa·s]": 67.61}

Exercise: Give the reported value of viscosity for this record: CC[n+]1ccn(C)c1.N[C@@H](CO)C(=O)[O-] [3-ethyl-1-methyl-1H-imidazolium L-serinate]
Key: 62.48

###

Consider the following molecules; for each one, report its viscosity.
EXPERIMENTAL_CONDITIONS: 303.15 K; 101.33 kPa; Liquid; Concentric cylinders viscometry
Numbers only, in mPa·s.

These solved cases illustrate the format of a correct answer.
{"MOLECULE": "CCn1cc[n+](C)c1.C[C@H](N)C(=O)[O-] [1-ethyl-3-methylimidazolium L-alaninate]", "viscosity [mPa·s]": 126.6}
{"MOLECULE": "CCn1cc[n+](C)c1.O=C([O-])[C@@H]1CCCN1 [1-ethyl-3-methyl-1H-imidazolium L-prolinate]", "viscosity [mPa·s]": 295.17}
{"MOLECULE": "CCn1cc[n+](C)c1.NCC(=O)[O-] [1-ethyl-3-methylimidazolium ammonioacetate]", "viscosity [mPa·s]": 47.75}

Exercise: Give the reported value of viscosity for this record: CC[n+]1ccn(C)c1.N[C@@H](CO)C(=O)[O-] [3-ethyl-1-methyl-1H-imidazolium L-serinate]
Key: 279.82

###

EXPERIMENTAL_CONDITIONS: 343.15 K; 101.33 kPa; Liquid; Concentric cylinders viscometry
Consider the following compounds; for each one, report its viscosity.
Answers are plain numbers, in mPa·s.

These solved cases illustrate the format of a correct answer.
{"COMPOUND": "CCn1cc[n+](C)c1.NCC(=O)[O-] [1-ethyl-3-methylimidazolium ammonioacetate]", "MEASUREMENT_UNIT": "mPa·s", "viscosity": 10.94}
{"COMPOUND": "CCn1cc[n+](C)c1.C[C@H](N)C(=O)[O-] [1-ethyl-3-methylimidazolium L-alaninate]", "MEASUREMENT_UNIT": "mPa·s", "viscosity": 21.21}
{"COMPOUND": "CCn1cc[n+](C)c1.O=C([O-])[C@@H]1CCCN1 [1-ethyl-3-methyl-1H-imidazolium L-prolinate]", "MEASUREMENT_UNIT": "mPa·s", "viscosity": 35.47}

Alright, here's another compound for you.
Exercise: Give the reported value of viscosity for this record: CC[n+]1ccn(C)c1.N[C@@H](CO)C(=O)[O-] [3-ethyl-1-methyl-1H-imidazolium L-serinate]
Key: 32.36

###

PROCEDURE_DETAILS: refractive index (Na D-line) (dimensionless)
EXPERIMENTAL_CONDITIONS: 293.15 K; 101.33 kPa; Liquid; Standard Abbe refractometry
± gives the expanded uncertainty stated by the source.
Consider the following molecules; for each one, report its refractive index.

{"MOLECULE": "CCn1cc[n+](C)c1.C[C@H](N)C(=O)[O-] [1-ethyl-3-methylimidazolium L-alaninate]", "REPORTED_RESULT": "1.50586 ± 0.00068"}
{"MOLECULE": "CCn1cc[n+](C)c1.NCC(=O)[O-] [1-ethyl-3-methylimidazolium ammonioacetate]", "REPORTED_RESULT": "1.50628 ± 0.00068"}
{"MOLECULE": "CC[n+]1ccn(C)c1.N[C@@H](CO)C(=O)[O-] [3-ethyl-1-methyl-1H-imidazolium L-serinate]", "REPORTED_RESULT": "1.51205 ± 0.00068"}

Alright, here's another molecule for you.
Exercise: Give the reported value of refractive index for this record: CCn1cc[n+](C)c1.O=C([O-])[C@@H]1CCCN1 [1-ethyl-3-methyl-1H-imidazolium L-prolinate]
Key: 1.51523 ± 0.00068

###

EXPERIMENTAL_CONDITIONS: 318.15 K; 101.33 kPa; Liquid; Concentric cylinders viscometry
MEASURE_NAME: viscosity (mPa·s)
Give bare numbers, in mPa·s.

{"MOLECULE": "CC[n+]1ccn(C)c1.N[C@@H](CO)C(=O)[O-] [3-ethyl-1-methyl-1H-imidazolium L-serinate]", "MEASURE_NAME": "viscosity", "REPORTED_RESULT": 105.8}
{"MOLECULE": "CCn1cc[n+](C)c1.NCC(=O)[O-] [1-ethyl-3-methylimidazolium ammonioacetate]", "MEASURE_NAME": "viscosity", "REPORTED_RESULT": 24.89}

Quick one: give me viscosity for each item below, same order please.
1. CCn1cc[n+](C)c1.O=C([O-])[C@@H]1CCCN1 [1-ethyl-3-methyl-1H-imidazolium L-prolinate]
2. CCn1cc[n+](C)c1.C[C@H](N)C(=O)[O-] [1-ethyl-3-methylimidazolium L-alaninate]

Key:
114.27
56.62

###

EXPERIMENTAL_CONDITIONS: 323.15 K; 101.33 kPa; Liquid; Concentric cylinders viscometry
Numbers after ± are expanded uncertainties.
Consider the following molecules; for each one, report its viscosity.

These solved cases illustrate the format of a correct answer.
{"MOLECULE": "CC[n+]1ccn(C)c1.N[C@@H](CO)C(=O)[O-] [3-ethyl-1-methyl-1H-imidazolium L-serinate]", "viscosity": "80.49 ± 1.4 mPa·s"}
{"MOLECULE": "CCn1cc[n+](C)c1.NCC(=O)[O-] [1-ethyl-3-methylimidazolium ammonioacetate]", "viscosity": "20.64 ± 0.36 mPa·s"}
{"MOLECULE": "CCn1cc[n+](C)c1.C[C@H](N)C(=O)[O-] [1-ethyl-3-methylimidazolium L-alaninate]", "viscosity": "45.13 ± 0.78 mPa·s"}

Alright, here's another molecule for you.
Exercise: Give the reported value of viscosity for this record: CCn1cc[n+](C)c1.O=C([O-])[C@@H]1CCCN1 [1-ethyl-3-methyl-1H-imidazolium L-prolinate]
Key: 87.05 ± 1.6 mPa·s

###

EXPERIMENTAL_CONDITIONS: 293.15 K; 101.33 kPa; Liquid; Vibrating tube method
± gives the expanded uncertainty stated by the source.
MEASURE_NAME: mass density

Quick one: give me mass density for each item below, same order please.
1. CCn1cc[n+](C)c1.NCC(=O)[O-] [1-ethyl-3-methylimidazolium ammonioacetate]
2. CC[n+]1ccn(C)c1.N[C@@H](CO)C(=O)[O-] [3-ethyl-1-methyl-1H-imidazolium L-serinate]

Key:
1158 ± 2.6 kg/m3
1198.3 ± 2.8 kg/m3

Quick one: give me mass density for each item below, same order please.
1. CCn1cc[n+](C)c1.O=C([O-])[C@@H]1CCCN1 [1-ethyl-3-methyl-1H-imidazolium L-prolinate]
2. CCn1cc[n+](C)c1.C[C@H](N)C(=O)[O-] [1-ethyl-3-methylimidazolium L-alaninate]

Key:
1158.14 ± 2.6 kg/m3
1139.2 ± 2.5 kg/m3

###

EXPERIMENTAL_CONDITIONS: 298.15 K; 101.33 kPa; Liquid; Vibrating tube method
MEASURE_NAME: mass density (kg/m3)
Numbers only, in kg/m3.

These solved cases illustrate the format of a correct answer.
{"COMPOUND": "CC[n+]1ccn(C)c1.N[C@@H](CO)C(=O)[O-] [3-ethyl-1-methyl-1H-imidazolium L-serinate]", "MEASUREMENT_UNIT": "kg/m3", "REPORTED_RESULT": 1195.2}
{"COMPOUND": "CCn1cc[n+](C)c1.C[C@H](N)C(=O)[O-] [1-ethyl-3-methylimidazolium L-alaninate]", "MEASUREMENT_UNIT": "kg/m3", "REPORTED_RESULT": 1136.1}
{"COMPOUND": "CCn1cc[n+](C)c1.NCC(=O)[O-] [1-ethyl-3-methylimidazolium ammonioacetate]", "MEASUREMENT_UNIT": "kg/m3", "REPORTED_RESULT": 1154.7}

Exercise: Give the reported value of mass density for this record: CCn1cc[n+](C)c1.O=C([O-])[C@@H]1CCCN1 [1-ethyl-3-methyl-1H-imidazolium L-prolinate]
Key: 1155.08
